Entries annotated with measured IC50
Test system: CQ-resistant (W-2) strain of P. falciparum
Experiment: 3H-adenosine incorporation, chloroquine-resistant P. falciparum
Assay type: cell-based
Conditions: read-out: IC50 DRUG COMBINATION TT(1.0 uM) QHS(0.3 uM); R STRAIN; TT/QHS 10:3; mean ± S.D
Protocol: Chloroquine and qinghaosu are commonly used antimalarial drugs. The dose (IC50) of each drug or each drug combination required to effect a 50% inhibition in the malarial activity of each strain was determined by establishing a dose response curve for each. FCMSU1/Sudan strain and cloned Indochina (W-2) strain of P. falciparum were used. […] The resulting culture was ready for addition to microtitration plates with ninety-six flat-bottom wells. […]
measured property: IC50 (nM)

| structure smiles string | measured property | measured number |
| --- | --- | --- |
| C[C@@H]1CC[C@H]2[C@@H](C)C(=O)O[C@@H]3O[C@@]4(C)CC[C@@H]1[C@]32OO4 | IC50 | 17.9 |
| COc1ccc2cc1Oc1ccc(cc1)C[C@H]1c3cc(c(OC)cc3CCN1C)Oc1c(OC)c(OC)cc3c1[C@H](C2)N(C)CC3 | IC50 | 59.6 |
